Data export: pIC50 values recorded with Wee1-like protein kinase (Homo sapiens).
Sequence (P30291 whole entry): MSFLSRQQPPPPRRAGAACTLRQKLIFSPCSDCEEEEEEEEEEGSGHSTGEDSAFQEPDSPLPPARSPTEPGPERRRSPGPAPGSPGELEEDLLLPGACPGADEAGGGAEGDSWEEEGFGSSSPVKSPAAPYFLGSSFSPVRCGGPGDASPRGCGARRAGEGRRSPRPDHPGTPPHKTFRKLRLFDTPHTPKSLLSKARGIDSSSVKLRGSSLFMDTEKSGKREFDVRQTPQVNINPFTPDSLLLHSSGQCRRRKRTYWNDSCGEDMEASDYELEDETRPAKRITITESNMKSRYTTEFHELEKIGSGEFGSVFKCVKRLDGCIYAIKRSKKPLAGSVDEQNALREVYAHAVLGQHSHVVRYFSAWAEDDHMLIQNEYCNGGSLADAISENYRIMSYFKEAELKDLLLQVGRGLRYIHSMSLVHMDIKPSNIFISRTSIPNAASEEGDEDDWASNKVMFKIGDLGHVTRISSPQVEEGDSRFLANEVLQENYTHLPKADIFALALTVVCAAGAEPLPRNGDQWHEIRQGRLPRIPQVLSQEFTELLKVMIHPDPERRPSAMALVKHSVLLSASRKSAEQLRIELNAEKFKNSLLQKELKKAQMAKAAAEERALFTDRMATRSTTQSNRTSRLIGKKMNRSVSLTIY
pIC50 is a log-scale quantity: -log10 of the concentration expressed in molar.

// worked examples, pIC50 included
Form entry - test system: Wee1-like protein kinase (Homo sapiens); read-out: pIC50; compound: O=C1NC(=O)c2c1c(-c1c(Cl)cccc1Cl)cc1c2c2cc(O)ccc2n1CCC(=O)N1CCOCC1
6.96

Form entry - test system: Wee1-like protein kinase (Homo sapiens); read-out: pIC50; compound: O=C1NC(=O)c2c1c(-c1c(Cl)cccc1Cl)cc1c2c2cc(O)ccc2n1CCC(=O)n1ccnc1
6.92

More entries:
Form entry - test system: Wee1-like protein kinase (Homo sapiens); read-out: pIC50; compound: O=C1NC(=O)c2c1ccc1c2c2cc(O)ccc2n1CCCC(=O)n1ccnc1
6.96
